meta.source: the supplement of paper PMC7125110

For each record, write down the corresponding log10 kcat.
B1: glmS ribozyme (parent)
chain: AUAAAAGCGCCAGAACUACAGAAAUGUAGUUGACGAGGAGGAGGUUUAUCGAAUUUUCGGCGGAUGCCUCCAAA

- Variants of: B1
- protocol.summary: kcat; higher = faster cleavage; RNA array
- condition.description: with glucosamine-6-phosphate
Fewer inactive variants are shown than the library holds.
Quick note: numbers are log10 of kcat, with s⁻¹ as the unit.

A64U C71U
-3.80
C16G A39C
-3.10
U57A G60C
-4.61

Would you mind listing log10 kcat for each of the following variants?
1. U31C A39U
2. G13U U45A
3. C11G A33U U54G C67A C71U
4. G29U U46A
5. U31C C67U
6. C50G C67U
7. U30G A39U
8. G29C U46G

-2.16
-2.67
-4.94
-3.45
-2.91
-3.95
-2.10
-3.50

Hey, quick one: what's log10 kcat for each of these?
1. A39C C67U
2. A14C A53G
3. U54G G60A
4. A14G G32C A53U
5. A12U C67U C70G

1. -3.31
2. -2.05
3. -4.64
4. -3.66
5. -4.69

Fill in log10 kcat for each of the 8 variants listed.
1. G37C C68G
2. G41C G66A
3. A14C G29C
4. A15C U31A
5. U30A C58U
6. C68U C70U
7. A12C G41A
8. C16A C71A

-4.74
-2.90
-3.02
-2.16
-4.75
-4.65
-2.79
-3.89
